Data origin, for the record: patent US11560371B2

- TESTED_TARGET: AR (Homo sapiens, UniProt P10275)
- Construct: endogenous in cells; host or cells: VCaP cells
- PROTOCOL: VCAP AR Degradation Assay
- Assay type: cell-based
- DETAILS: VCaP cells, 24 h, AR ELISA; lowest measured AR level normalized to DMSO control (AR degradation efficiency)
Structures can show the parent of a compound that is named as a salt.
METRIC_NAME: Y

C[C@@H]1C[C@@H](CCO[C@H]2CC[C@H](N3C(=S)N(c4ccc(C#N)c(C(F)(F)F)c4)C(=O)C3(C)C)CC2)C[C@H](C)N1CC(=O)Nc1cccc2c(N3CCC(=O)NC3=O)nn(C)c12 [Cmpd 13, hydrochloride]	* (0<Y≤20%)
C[C@@H]1C[C@H](OCCC[C@H]2CC[C@H](N3C(=S)N(c4ccc(C#N)c(C(F)(F)F)c4)C(=O)C3(C)C)CC2)C[C@H](C)N1CC(=O)Nc1cccc2c(N3CCC(=O)NC3=O)nn(C)c12	* (0<Y≤20%)
C[C@@H]1CN(CCC[C@H]2CC[C@H](N3C(=S)N(c4cnc(C#N)c(C(F)(F)F)c4)C(=O)C3(C)C)CC2)C[C@H](C)N1CC(=O)Nc1cccc2c(N3CCC(=O)NC3=O)nn(C)c12 [Cmpd 10, hydrochloride]	* (0<Y≤20%)

###

- TESTED_TARGET: AR (Homo sapiens, UniProt P10275)
- Construct: endogenous in cells; host or cells: VCaP cells
- Sequence (P10275 1-920): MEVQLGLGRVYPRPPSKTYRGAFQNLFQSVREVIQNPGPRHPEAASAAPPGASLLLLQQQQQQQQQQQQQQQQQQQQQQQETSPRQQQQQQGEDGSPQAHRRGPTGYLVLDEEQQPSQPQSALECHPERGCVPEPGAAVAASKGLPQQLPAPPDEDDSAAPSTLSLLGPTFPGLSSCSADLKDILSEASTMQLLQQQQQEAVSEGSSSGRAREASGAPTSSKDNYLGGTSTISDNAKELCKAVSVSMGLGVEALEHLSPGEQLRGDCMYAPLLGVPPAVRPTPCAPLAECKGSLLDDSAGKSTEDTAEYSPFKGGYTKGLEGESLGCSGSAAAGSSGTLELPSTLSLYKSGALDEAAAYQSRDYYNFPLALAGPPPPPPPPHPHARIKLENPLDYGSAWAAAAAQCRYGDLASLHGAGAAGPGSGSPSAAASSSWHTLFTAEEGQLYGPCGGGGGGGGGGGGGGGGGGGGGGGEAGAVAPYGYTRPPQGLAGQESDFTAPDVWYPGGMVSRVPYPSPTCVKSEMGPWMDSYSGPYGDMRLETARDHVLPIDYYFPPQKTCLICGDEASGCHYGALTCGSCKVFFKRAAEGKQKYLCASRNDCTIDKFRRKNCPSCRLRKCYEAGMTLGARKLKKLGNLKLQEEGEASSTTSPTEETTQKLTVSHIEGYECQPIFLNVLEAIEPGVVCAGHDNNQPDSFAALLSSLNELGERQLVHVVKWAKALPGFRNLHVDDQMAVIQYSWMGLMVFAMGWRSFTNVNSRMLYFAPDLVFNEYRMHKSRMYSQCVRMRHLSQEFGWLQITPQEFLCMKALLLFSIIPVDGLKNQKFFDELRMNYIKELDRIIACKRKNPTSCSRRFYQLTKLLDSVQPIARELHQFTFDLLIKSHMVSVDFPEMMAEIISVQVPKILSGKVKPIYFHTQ
- PROTOCOL: VCAP AR Degradation Assay
- Type: cell-based
- DETAILS: VCaP cells, 24 h, AR ELISA; concentration of compound when AR level = 50% of DMSO control (50% AR degradation)
Counter-ions that a name gives are not always drawn.
Kindly state DC50 for each of the entries shown.

**Q:** Tell me its DC50 given C[C@@H]1CN(CCC[C@H]2CC[C@H](N3C(=S)N(c4cnc(C#N)c(C(F)(F)F)c4)C(=O)C3(C)C)CC2)C[C@H](C)N1CC(=O)Nc1cccc2c(N3CCC(=O)NC3=O)nn(C)c12 [Cmpd 10, hydrochloride] as the entry.
**A:** 2 to 10 nM

**Q:** Tell me its DC50 given C[C@@H]1CN(CCO[C@H]2CC[C@H](N3C(=S)N(c4cnc(C#N)c(C(F)(F)F)c4)C(=O)C3(C)C)CC2)C[C@H](C)N1CC(=O)Nc1cccc2c(N3CCC(=O)NC3=O)nn(C)c12 [Cmpd 4, hydrochloride] as the entry.
**A:** 2 to 10 nM

**Q:** Tell me its DC50 given C[C@@H]1CN(CCCO[C@H]2CC[C@H](N3C(=S)N(c4ccc(C#N)c(Cl)c4)C(=O)C3(C)C)CC2)C[C@H](C)N1CC(=O)Nc1cccc2c(N3CCC(=O)NC3=O)nn(C)c12 [Cmpd 9, hydrochloride] as the entry.
**A:** ≤ 2 nM

**Q:** Tell me its DC50 given C[C@@H]1CN(CCO[C@H]2CC[C@H](N3C(=S)N(c4ccc(C#N)c(S(F)(F)(F)(F)F)c4)C(=O)C3(C)C)CC2)C[C@H](C)N1CC(=O)Nc1cccc2c(N3CCC(=O)NC3=O)nn(C)c12 [Cmpd 21, hydrochloride] as the entry.
**A:** 100 to 10000 nM

###

- TESTED_TARGET: AR (Homo sapiens, UniProt P10275)
- Construct: endogenous in cells; host or cells: VCaP cells
- PROTOCOL: VCAP AR Degradation Assay
- Assay type: cell-based
- DETAILS: VCaP cells, 24 h, AR ELISA; concentration of compound when AR level = 50% of DMSO control (50% AR degradation)
Structures can show the parent of a compound that is named as a salt.
METRIC_NAME: DC50

**Q:** Tell me its DC50 given C[C@@H]1CN(CCO[C@H]2CC[C@H](N3C(=S)N(c4ccc(C#N)c(C(F)(F)F)c4)C(=O)C3(C)C)CC2)C[C@H](C)N1CC(=O)Nc1cccc2c(N3CCC(=O)NC3=O)nn(C)c12 [Cmpd 1, hydrochloride] as the entry.
**A:** 0.01 to 0.1 µM

**Q:** Tell me its DC50 given C[C@@H]1C[C@H](CCO[C@H]2CC[C@H](N3C(=S)N(c4ccc(C#N)c(C(F)(F)F)c4)C(=O)C3(C)C)CC2)C[C@H](C)N1CC(=O)Nc1cccc2c(N3CCC(=O)NC3=O)nn(C)c12 [Cmpd 14, hydrochloride] as the entry.
**A:** 0.002 to 0.01 µM

**Q:** Tell me its DC50 given C[C@@H]1CN(CCO[C@H]2CC[C@H](N3C(=S)N(c4ccc(C#N)c(C(F)(F)F)c4)C(=O)C3(C)C)CC2)C[C@H](C)N1CCCOc1cccc2c(N3CCC(=O)NC3=O)nn(C)c12 [Cmpd 16, hydrochloride] as the entry.
**A:** 0.1 to 10 µM

**Q:** Tell me its DC50 given `Cn1nc(N2CCC(=O)NC2=O)c2cccc(NC(=O)CN3CCN(CCC[C@H]4CC[C@H](N5C(=S)N(c6ccc(C#N)c(C(F)(F)F)c6)C(=O)C5(C)C)CC4)C[C@@H]3C(F)(F)F)c21` as the entry.
**A:** 0.002 to 0.01 µM

**Q:** Tell me its DC50 given `C[C@@H]1C[C@H](OCC[C@H]2CC[C@H](N3C(=S)N(c4ccc(C#N)c(C(F)(F)F)c4)C(=O)C3(C)C)CC2)C[C@H](C)N1CC(=O)Nc1cccc2c(N3CCC(=O)NC3=O)nn(C)c12` as the entry.
**A:** 0.002 to 0.01 µM

**Q:** Tell me its DC50 given Cn1nc(N2CCC(=O)NC2=O)c2cccc(NC(=O)CN3CCN(CCC[C@H]4CC[C@H](N5C(=S)N(c6cnc(C#N)c(C(F)(F)F)c6)C(=O)C5(C)C)CC4)C[C@@H]3C(F)(F)F)c21 [Cmpd 22, hydrochloride] as the entry.
**A:** 0.002 to 0.01 µM

**Q:** Tell me its DC50 given C[C@@H]1CN(CCC[C@H]2CC[C@H](N3C(=S)N(c4ccc(C#N)c(C(F)(F)F)c4)C(=O)C3(C)C)CC2)C[C@H](C)N1CC(=O)Nc1cccc2c(N3CCC(=O)NC3=O)nn(C)c12 [Cmpd 2, hydrochloride] as the entry.
**A:** 0.002 to 0.01 µM

**Q:** Tell me its DC50 given C[C@@H]1CN(CCC[C@H]2CC[C@H](N3C(=S)N(c4ccc(C#N)c(Cl)c4)C(=O)C3(C)C)CC2)C[C@H](C)N1CC(=O)Nc1cccc2c(N3CCC(=O)NC3=O)nn(C)c12 [Cmpd 11, hydrochloride] as the entry.
**A:** 0.01 to 0.1 µM

###

- TESTED_TARGET: AR (Homo sapiens, UniProt P10275)
- Construct: endogenous in cells; host or cells: VCaP cells
- PROTOCOL: VCAP AR Degradation Assay
- Format: cell-based
- DETAILS: VCaP cells, 24 h, AR ELISA; concentration of compound when AR level = 50% of DMSO control (50% AR degradation)
Where a name gives a salt, the structure may show the parent alone.
Kindly state DC50 for each of the entries shown.

**Q:** Tell me its DC50 given `C[C@@H]1C[C@H](OCCC[C@H]2CC[C@H](N3C(=S)N(c4ccc(C#N)c(C(F)(F)F)c4)C(=O)C3(C)C)CC2)C[C@H](C)N1CC(=O)Nc1cccc2c(N3CCC(=O)NC3=O)nn(C)c12` as the entry.
**A:** 10 to 100 nM

**Q:** Tell me its DC50 given C[C@@H]1CN(CCO[C@H]2CC[C@H](N3C(=S)N(c4ccc(C#N)c(Cl)c4)C(=O)C3(C)C)CC2)C[C@H](C)N1CC(=O)Nc1cccc2c(N3CCC(=O)NC3=O)nn(C)c12 [Cmpd 3, hydrochloride] as the entry.
**A:** 2 to 10 nM

**Q:** Tell me its DC50 given C[C@@H]1CN(CCO[C@H]2CC[C@H](N3C(=S)N(c4ccc(C#N)c(C(F)(F)F)c4)C(=O)C3(C)C)CC2)C[C@H](C)N1CCOc1cccc2c(N3CCC(=O)NC3=O)nn(C)c12 [Cmpd 15, hydrochloride] as the entry.
**A:** 100 to 10000 nM
